Values were extracted from patent US20090042883A1.

test system: human renal cancer OS-RC-2 cells; assay: Growth inhibition test on human renal cancer OS-RC-2 cells (WST-1, % viability); assay type: cell-based; details: test compound 10 μmol/L, 72 hours, cells without test compound = 100%
The molecules listed here are annotated with their Viability of tumor cells (% viability), Human renal cancer OS-RC-2 cells.
Express your answer in %, writing the number without its unit.

CCc1c(O)cc(O)c(C(=O)c2ccc(S(C)(=O)=O)cc2)c1CC(=O)N(CCOC)CCOC 18
CCc1c(O)cc(O)c(C(=O)c2ccsc2)c1CC(=O)N(CCO)CCOC 30
CCc1c(O)cc(O)c(C(=O)c2ccc(C(F)(F)F)cc2)c1CC(=O)N(CCO)CCOC 16

stdin: Give the measured Viability of tumor cells (% viability), Human renal cancer OS-RC-2 cells of `CCOc1ccc(C(=O)c2c(O)cc(O)c(CC)c2CC(=O)N(CCO)CCOC)cc1` .
stdout: 15

* * *

# key: entry, value: Viability of tumor cells (% viability), Human chronic lymphocytic leukemia MEC-1 cells
tested on: human chronic lymphocytic leukemia-derived MEC-1 cells; test: Growth inhibition test on human chronic lymphocytic leukemia-derived MEC-1 cells (WST-1, % viability); format: cell-based; settings: test compound 10 μmol/L, 72 hours, cells without test compound = 100%
Give just the numeric value; % need not be written.

Compound	Tgt	Observed result
CCc1c(O)cc(O)c(C(=O)c2ccc(OC)cc2)c1CC(=O)N(CCO)Cc1ccco1 [Compound 69]	human chronic lymphocytic leukemia-derived MEC-1 cells	4

stdin: Suppose we examine the compound CCc1c(O)cc(O)c(C(=O)c2ccc(OC(F)F)cc2)c1CC(=O)N(CCO)CCOC [Compound 91] ; what Viability of tumor cells (% viability), Human chronic lymphocytic leukemia MEC-1 cells value has been reported?
stdout: 4

stdin: Look up Viability of tumor cells (% viability), Human chronic lymphocytic leukemia MEC-1 cells for this compound: CCc1c(O)cc(O)c(C(=O)c2ccsc2)c1CC(=O)N(CCO)CCOC [Compound 151]
stdout: 4

* * *

test system: human chronic lymphocytic leukemia-derived MEC-1 cells; assay: Growth inhibition test on human chronic lymphocytic leukemia-derived MEC-1 cells (WST-1, % viability); format: cell-based; conditions: test compound 10 μmol/L, 72 hours, cells without test compound = 100%
Items are presented alongside their recorded Viability of tumor cells (% viability), Human chronic lymphocytic leukemia MEC-1 cells.
Just the number in %, nothing appended.

# example entries with known answers
Compound	Observed result
CCc1c(O)cc(O)c(C(=O)c2ccc(OC)cc2)c1CC(=O)N1CCc2cc(OC)c(OC)cc2C1 [Compound 38]	4
CCc1c(O)cc(O)c(C(=O)c2ccc(OC)cc2)c1CC(=O)N1CCN(c2ncccn2)CC1 [Compound 32]	4
CCc1c(O)cc(O)c(C(=O)c2ccc(OCCN3CCOCC3)c(OC)c2)c1CC(=O)N(CCOC)CCOC.Cl [Compound 139]	5
CCc1c(O)cc(O)c(C(=O)c2ccc(OC(C)C)cc2)c1CC(=O)N(CCOC)CCN1CCOCC1 [Compound 134]	6
CCc1c(O)cc(O)c(C(=O)c2ccc(OCCCN3CCOCC3)c(OC)c2)c1CC(=O)N(CCOC)CCOC [Compound 149]	5

stdin: Field request: Viability of tumor cells (% viability), Human chronic lymphocytic leukemia MEC-1 cells | item: CCOc1ccc(C(=O)c2c(O)cc(O)c(CC)c2CC(=O)N(CCO)CCOC)cc1 [Compound 122]
stdout: 4

stdin: Item CCc1c(O)cc(O)c(C(=O)c2ccc(OC)cc2)c1CC(=O)N1CCC(CO)CC1 [Compound 61] has what recorded Viability of tumor cells (% viability), Human chronic lymphocytic leukemia MEC-1 cells?
stdout: 5

stdin: Form field: reported Viability of tumor cells (% viability), Human chronic lymphocytic leukemia MEC-1 cells of CCc1c(O)cc(O)c(C(=O)c2ccc(O)c(OC)c2)c1CC(=O)N(CCOC)CCOC [Compound 106]
stdout: 4
